- procedure summary: Quantum yield in aqueous solution (Tris) and in the presence of surfactants
- Type: physicochemical
- condition set: 25 mM CHAPS
measurement label: φCHAPS (quantum yield)

Some solved entries appear below for comparison.
compound | φCHAPS (quantum yield)
COc1cc2c(cc1C#Cc1ccc(C)cc1)[Si](c1ccccc1)(c1ccccc1)c1cc(C#Cc3ccc(C)cc3)c(OC)cc1-2 [4Si] | 0.86
COc1ccc2cc(C#Cc3c[c]4c(cc3OC)-c3cc(OC)c(C#Cc5ccc6cc(OC)ccc6c5)c[c]3[Ge]4([c]3ccccc3)[c]3ccccc3)ccc2c1 [8Ge] | 0.93

(I) COc1cc2c(cc1C#Cc1ccc(-c3ccccc3)cc1)[Si](c1ccccc1)(c1ccccc1)c1cc(C#Cc3ccc(-c4ccccc4)cc3)c(OC)cc1-2 [7Si]
(II) COc1cc2c(cc1C#Cc1cccc(F)c1)[Si](c1ccccc1)(c1ccccc1)c1cc(C#Cc3cccc(F)c3)c(OC)cc1-2 [3Si]
Please let me know which one, I or II , has a lower measured φCHAPS (quantum yield) value. Identify your selection by its label.
I
